This collection of values is drawn from patent US6525059B1.

- target_or_system: human GST-p38 kinase alpha (Homo sapiens, UniProt Q16539)
- Construct: The coding region of the human p38a cDNA was obtained by PCR-amplification from RNA isolated from the human monocyte cell line THP.1; made in house; host or cells: E. coli DH10B
- Sequence (Q16539 whole entry): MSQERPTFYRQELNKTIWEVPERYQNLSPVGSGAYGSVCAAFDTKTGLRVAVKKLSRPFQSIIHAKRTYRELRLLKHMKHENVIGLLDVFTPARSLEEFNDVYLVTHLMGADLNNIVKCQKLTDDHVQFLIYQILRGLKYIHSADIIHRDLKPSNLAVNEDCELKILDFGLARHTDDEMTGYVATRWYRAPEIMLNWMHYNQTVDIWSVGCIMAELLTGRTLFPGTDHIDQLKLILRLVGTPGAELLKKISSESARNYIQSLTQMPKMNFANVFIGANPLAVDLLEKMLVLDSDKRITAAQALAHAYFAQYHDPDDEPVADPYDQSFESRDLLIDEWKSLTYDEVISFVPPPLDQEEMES
- test_details: p38 kinase in vitro assay, second format, phosphorylation of EGFRP with 33P-ATP
- Type: biochemical
- measurement_parameters: Table 9, 10% DMSO; read-out: p38α Kinase Assay IC50
Task for the reader: assign each of the following compounds its reported IC50.
Provide the reading as a plain figure in nM.

Query block: Quick one: IC50 for CCN(CC)CCNc1cc(-c2c[nH]nc2-c2ccc(F)cc2)ccn1 [Example A-374] ?
Result block: 380

Query block: Quick one: IC50 of C[C@H](O)CNc1cc(-c2c[nH]nc2-c2ccc(F)cc2)ccn1 [Example A-370] ?
Result block: 160

Query block: Param item = OCC(Nc1cc(-c2c[nH]nc2-c2ccc(F)cc2)ccn1)c1ccccc1 (stereo not shown) [Example A-376] ; retrieve measured IC50.
Result block: 32

Query block: Which value of IC50 has been reported for OC[C@@H](Nc1cc(-c2c[nH]nc2-c2ccc(F)cc2)ccn1)c1ccccc1 [Example A-362] in the records?
Result block: 690

====

Assign IC50 to each entry below.
- target_or_system: human GST-p38 kinase alpha (Homo sapiens, UniProt Q16539)
- Construct: The coding region of the human p38a cDNA was obtained by PCR-amplification from RNA isolated from the human monocyte cell line THP.1; made in house; host or cells: E. coli DH10B
- test_details: p38 kinase in vitro assay, second format, phosphorylation of EGFRP with 33P-ATP
- Format: biochemical
- measurement_parameters: Table 10, 10% DMSO; @ 1.0 hour; read-out: p38α Kinase Assay IC50
Numeric only. Scale: µM

Query block: Using the record for "C=Cc1ccc(-c2[nH]nc(N3CCN(C)CC3)c2-c2ccncc2)cc1" , report its IC50.
Result block: 0.12

Query block: Given "N#Cc1cccc(C(=O)C(=C2SCS2)c2ccncc2)c1" , state its recorded IC50.
Result block: 7.24

Query block: Look at this compound and give its reported IC50. "CN1CCN(c2[nH]nc(-c3ccc(Br)cc3)c2-c2ccncc2)CC1"
Result block: 0.15

Query block: I am curious: what IC50 value has been reported for "CN(C)CCCNC(=O)CSc1[nH]nc(-c2ccc(Cl)cc2)c1-c1ccncc1" ?
Result block: 1.66

Query block: Could you share which IC50 value was measured for "Cc1ccc(C(=O)C(=C2SCS2)c2ccncc2)cc1C" ?
Result block: 9.11

Query block: I'd like to know its IC50. The compound in question is "Cc1cc(C(=O)C(=C2SCS2)c2ccncc2)ccc1Br"
Result block: 4.85

====

assay_metric: melting point (°C)
Numeric only. Scale: °C

Query block: Data request, read-out melting point, for "N#Cc1cc(-c2c[nH]nc2-c2ccc(F)cc2)ccn1"
Result block: 209.22

Query block: Quick one: melting point for "CCn1nc(-c2ccc(Cl)cc2)c(-c2ccncc2)c1C" ?
Result block: 164.36

====

Could you please report measured log10 of IC50 for the items listed next?
- target_or_system: human p38 kinase alpha (Homo sapiens, UniProt Q16539)
- Construct: The coding region of the human p38a cDNA was obtained by PCR-amplification from RNA isolated from the human monocyte cell line THP.1; GST (N); made in house; host or cells: E. coli DH10B
- Sequence (Q16539 whole entry): as above
- test_details: p38 kinase in vitro assay, phosphorylation of biotinylated PHAS-I with gamma 32P-ATP
- Type: biochemical
- measurement_parameters: read-out: P38 alpha kinase IC50
In plain terms, each number is the log10 of measured IC50 in nM.

Query block: Could you share which log10 of IC50 value was measured for "Cc1cccc(C)c1NC(=O)N[C@H](C)c1[nH]nc(-c2ccc(F)cc2)c1-c1ccncc1" ?
Result block: 2.79

Query block: For the molecule shown here, "COc1cccc(CC(=O)N[C@H](C)c2[nH]nc(-c3ccc(F)cc3)c2-c2ccncc2)c1" , give the reported log10 of IC50.
Result block: 2.65

Query block: Name the recorded log10 of IC50 for "O=S(=O)(NCc1[nH]nc(-c2ccc(F)cc2)c1-c1ccncc1)c1cccc(Br)c1" .
Result block: 3.12

Query block: # lookup: log10 of IC50 of "O=C(NCCCc1[nH]nc(-c2ccc(F)cc2)c1-c1ccncc1)c1ccccc1Br"
Result block: 2.85

Query block: # log10 of IC50 lookup, item "N#Cc1cccc(C(=O)NCc2[nH]nc(-c3ccc(F)cc3)c2-c2ccncc2)c1"
Result block: 3.43

Query block: Quick check: log10 of IC50 of "CN1CCC[C@H]1c1[nH]nc(-c2ccc(F)cc2)c1-c1ccncc1" ?
Result block: 2.23

Query block: Any idea what its log10 of IC50 is? The molecule is "O=C(NCc1[nH]nc(-c2ccc(F)cc2)c1-c1ccncc1)c1c(F)cccc1C(F)(F)F"
Result block: 1.92

Query block: Given the molecule "O=S(=O)(NCc1[nH]nc(-c2ccc(F)cc2)c1-c1ccncc1)c1ccc(Cl)cc1" , what is its reported log10 of IC50?
Result block: 1.67

====

- System: human TNF
- test_details: TNF inhibition: human whole blood assay
- Assay type: cell-based
- measurement_parameters: Homo sapiens, Table 9, human whole blood, LPS; read-out: TNF Inhibition-Human Whole Blood Assay
Structures can show the parent of a compound that is named as a salt.
assay_metric: IC50

Query block: For the compound shown here, "O[C@H]1CC[C@H](Nc2cc(-c3c[nH]nc3-c3ccc(F)cc3)ccn2)CC1" , give the reported IC50.
Result block: 160 nM

Query block: What does the record list as IC50 for "C[C@H](O)CNc1cc(-c2c[nH]nc2-c2ccc(F)cc2)ccn1" ?
Result block: 1920 nM

Query block: Give its IC50 value. Item: CCN1CCCCC1CCNc1cc(-c2c[nH]nc2-c2ccc(F)cc2)ccn1 (centres unmarked)
Result block: 4000 nM

Query block: Recorded IC50 for CN(C)C1CCN(c2[nH]nc(-c3ccc(F)cc3)c2-c2ccncc2)CC1 [Example A-360, trihydrochloride] , please?
Result block: 500 nM

Query block: So what does the record say about IC50 for "OC[C@@H](Cc1ccccc1)Nc1cc(-c2c[nH]nc2-c2ccc(F)cc2)ccn1" ?
Result block: 1000 nM

Query block: What measured IC50 goes with CCN(CC)CCCC(C)Nc1[nH]nc(-c2ccc(F)cc2)c1-c1ccncc1 (centres unmarked) ?
Result block: 1000 nM

Query block: Look at this compound and give its reported IC50. CCN(CC)CCCC(C)Nc1cc(-c2c[nH]nc2-c2ccc(Cl)cc2)ccn1 (centres unmarked)
Result block: 840 nM

Query block: // IC50 lookup, key: "OC[C@@H](Nc1cc(-c2c[nH]nc2-c2ccc(F)cc2)ccn1)c1ccccc1"
Result block: 5500 nM

====

- target_or_system: human p38 kinase alpha (Homo sapiens)
- Construct: The coding region of the human p38a cDNA was obtained by PCR-amplification from RNA isolated from the human monocyte cell line THP.1; GST (N); made in house; host or cells: E. coli DH10B
- test_details: p38 kinase in vitro assay, phosphorylation of biotinylated PHAS-I with gamma 32P-ATP
- Type: biochemical
- measurement_parameters: read-out: P38 alpha kinase IC50
assay_metric: IC50 (nM)
Provide only the numeric value, understood in nM.

Query block: Request: IC50, test system human p38 kinase alpha (Homo sapiens), entry "O=C(NCc1[nH]nc(-c2ccc(F)cc2)c1-c1ccncc1)c1cccc(C(F)(F)F)c1F"
Result block: 4570

Query block: Checklist item: IC50 tested on human p38 kinase alpha (Homo sapiens), entry "Cc1noc(C)c1S(=O)(=O)NCc1[nH]nc(-c2ccc(F)cc2)c1-c1ccncc1" , value?
Result block: 310

Query block: Requested read-out IC50, target or system human p38 kinase alpha (Homo sapiens), entry "Cc1ccc(C(=O)N[C@H](C)c2[nH]nc(-c3ccc(F)cc3)c2-c2ccncc2)cc1"
Result block: 1380

Query block: Item CC1(C)C2CCC1(CS(=O)(=O)NCc1[nH]nc(-c3ccc(F)cc3)c1-c1ccncc1)C(=O)C2 (stereo not shown) [Example B-0226] with human p38 kinase alpha (Homo sapiens) - IC50?
Result block: 74

====

So I've got a bunch of compounds here, and I need their pIC50 values.
- target_or_system: human p38 kinase alpha (Homo sapiens, UniProt Q16539)
- Construct: The coding region of the human p38a cDNA was obtained by PCR-amplification from RNA isolated from the human monocyte cell line THP.1; GST (N); made in house; host or cells: E. coli DH10B
- test_details: p38 kinase in vitro assay, phosphorylation of biotinylated PHAS-I with gamma 32P-ATP
- Type: biochemical
- measurement_parameters: read-out: P38 alpha kinase IC50
Expect pIC50 as a plain number equal to -log10 of the molar concentration.

Query block: For the compound CC(NC(=O)c1ccc(F)cc1C(F)(F)F)c1[nH]nc(-c2ccc(F)cc2)c1-c1ccncc1 (stereo not shown) , what pIC50 is on record?
Result block: 6.18

Query block: Query (compound): "O=S(=O)(NCc1[nH]nc(-c2ccc(F)cc2)c1-c1ccncc1)c1cccc2nonc12" ; field requested: pIC50
Result block: 7.39

Query block: Name the recorded pIC50 for "C[C@@H](NC(=O)N1CCCC1)c1[nH]nc(-c2ccc(F)cc2)c1-c1ccncc1" .
Result block: 6.51

Query block: Entry under review: "O=C(NCc1[nH]nc(-c2ccc(F)cc2)c1-c1ccncc1)c1ccccc1Cl" . Reported pIC50?
Result block: 6.82

Query block: I'd like to know its pIC50. The compound in question is "C[C@@H](NC(=O)c1ccc(F)cc1C(F)(F)F)c1[nH]nc(-c2ccc(F)cc2)c1-c1ccncc1"
Result block: 8.15

Query block: // returns reported pIC50 for input "O=C(NCc1[nH]nc(-c2ccc(F)cc2)c1-c1ccncc1)c1ccccc1Br"
Result block: 6.72

Query block: # lookup: pIC50 of "C[C@@H](NS(=O)(=O)c1ccc(-c2ccccn2)s1)c1[nH]nc(-c2ccc(F)cc2)c1-c1ccncc1"
Result block: 6.24
